system: S. aureus OWPH 1793; assay: Determination of minimal inhibitory concentration (MIC)-2, new quinolone-resistant MRSA; type: cell-based; settings: Staphylococcus aureus, OWPH1793, 18 h; S. aureus OWPH 1793, new quinolone-resistant and methicillin-resistant; same procedure as Test Example 1
measurement_name: MIC (µg/mL)

Response field MIC (S. aureus OWPH 1793) for item CC1Sc2c(C(=O)O)c(=O)c3cc(F)c(-c4ccc(N)cc4)cc3n21 (stereo not drawn) : 1.56

(1) COc1c(-c2ccccc2)c(F)cc2c(=O)c(C(=O)O)c3n(c12)C(C)S3 (stereo not drawn)
(2) CC1Sc2c(C(=O)O)c(=O)c3cc(F)c(-c4ccc(N)cc4)c(F)c3n21 (stereo not drawn)
Query: Rank 1 against 2 by their MIC values and give the higher one. Lab log: write the label of the selected item as the result.
Reply: 1

---

system: Staphylococcus epider-midis IFO 12993; assay: Determination of minimal inhibitory concentration of growth (MIC)-1, agar plate dilution method; assay type: cell-based; conditions: Staphylococcus, IFO12993, 18 h, Staphylococcus epider-midis IFO 12993; agar plate dilution, 10⁶ CFU/ml, 37°C, 18 hours; read-out: MIC
measurement_name: MIC (µg/mL)

# MIC of O=C(O)c1c2n(c3c(F)c(-c4ccccc4)c(F)cc3c1=O)CS2 = 0.025

# MIC of CC1Sc2c(C(=O)O)c(=O)c3cc(F)c(-c4ccccc4)c(F)c3n21 (stereo not shown) = 0.012

# MIC of COc1ccc(-c2cc3c(cc2F)c(=O)c(C(=O)O)c2n3C(C)S2)cc1 (stereo not shown) = 0.1

(a) CC1Sc2c(C(=O)O)c(=O)c3cc(F)c(-c4ccc(N)cc4)cc3n21.Cl (stereo not shown)
(b) COc1c(-c2ccccc2)c(F)cc2c(=O)c(C(=O)O)c3n(c12)CS3
(c) CC1Sc2c(C(=O)O)c(=O)c3cc(F)c(-c4ccc(N)cc4)c(F)c3n21 (stereo not shown)
Query: Ascending sort, MIC. // rank by listing labels in the order requested
Reply: c, a, b
(c: 0.006 µg/mL, a: 0.012 µg/mL, b: 0.05 µg/mL)

---

system: Staphylococcus aureus OWPH 2125 (MRSA, PCA^r ); assay: Determination of minimal inhibitory concentration of growth (MIC)-1, agar plate dilution method; format: cell-based; conditions: Staphylococcus aureus, MRSA, 18 h, Staphylococcus aureus OWPH 2125 (MRSA, PCA^r); agar plate dilution, 10⁶ CFU/ml, 37°C, 18 hours; read-out: MIC
measurement_name: MIC (µg/mL)

(a) Nc1ccc(-c2cc3c(cc2F)c(=O)c(C(=O)O)c2n3CS2)cc1 [Example 31]
(b) CNc1ccc(-c2cc3c(cc2F)c(=O)c(C(=O)O)c2n3CS2)cc1 [Example 46]
Query: I'm curious whether a or b has the smaller MIC number. Which is it? Lab log: write the label of the selected item as the result.
Reply: b
(b: 0.1 µg/mL, a: 0.2 µg/mL)

---

test system: S. aureus OWPH 1770; experiment: Determination of minimal inhibitory concentration (MIC)-2, new quinolone-resistant MRSA; format: cell-based; details: Staphylococcus aureus, OWPH1770, 18 h; S. aureus OWPH 1770, new quinolone-resistant and methicillin-resistant; same procedure as Test Example 1
measurement_name: MIC (µg/mL)

Some solved entries appear below for comparison.
# MIC of CC1Sc2c(C(=O)O)c(=O)c3cc(F)c(N4CCNCC4)cc3n21 (stereo not drawn) [Control, reference compound] = 50

# MIC of CC1Sc2c(C(=O)O)c(=O)c3cc(F)c(-c4ccc(N)cc4)c(F)c3n21 (stereo not drawn) = 0.1

(A) CC1Sc2c(C(=O)O)c(=O)c3cc(F)c(-c4ccc(N)cc4)cc3n21 (stereo not drawn)
(B) COc1c(-c2ccccc2)c(F)cc2c(=O)c(C(=O)O)c3n(c12)C(C)S3 (stereo not drawn)
Query: Rank A against B by their MIC values and give the higher one. Lab log: write the label of the selected item as the result.
Reply: B
